Sourced from patent CN114920842A

Measured 倍数 (fold against HLPV-P00) accompanies every entry in the list below.
Biological target: T1, 重组人PLVAP/PV-1蛋白 (human, UniProt Q9BX97 49-442, limits assumed)
T1 construct: Bought reagent (Abcam); Coupled to a CM5 chip in the SPR assay; also called 质膜膜泡关联蛋白
T1 sequence (looked up): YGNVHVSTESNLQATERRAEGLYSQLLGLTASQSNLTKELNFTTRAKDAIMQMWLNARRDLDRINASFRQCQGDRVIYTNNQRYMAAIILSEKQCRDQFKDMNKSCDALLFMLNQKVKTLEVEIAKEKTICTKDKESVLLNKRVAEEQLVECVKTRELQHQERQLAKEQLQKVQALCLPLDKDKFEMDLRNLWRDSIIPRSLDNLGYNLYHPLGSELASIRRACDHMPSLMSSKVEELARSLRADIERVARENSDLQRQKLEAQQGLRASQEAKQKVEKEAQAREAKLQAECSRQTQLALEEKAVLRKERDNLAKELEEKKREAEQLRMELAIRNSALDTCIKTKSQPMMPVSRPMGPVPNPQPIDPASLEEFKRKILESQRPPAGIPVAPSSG
Test: SPR, Biacore T200, PV-1 coupled to CM5 chip, antibody as analyte, 25℃, 1:1 fit
Field: numeric (fold). Do not append units.

HLPV-P06 (antibody, IgG1, V domains shown, Full IgG1/kappa antibody; not shown: human IgG1 heavy chain constant region, UniProtKB P01857.1; human Kappa light chain constant region, UniProtKB P01834.2) VH: QVQLVQSGAEVKKPGASVKVSCKASGYTFTAYYMYWVRQAPGQGLEWIGEINPTSGDVNFNEMFKSRVTMTVDTSTSTAYMELSSLRSEDTAVYYCTSIFYWGQGTLVTVSS VL: DIVMTQSPSSLSASVGDRVTITCKASQDIKYQLSWYQQKPGKAPKTLIYYATFLADGVPSRFSGSGSGQEFTLTISSLQPEDFATYYCVQHDDRPFTFGQGTKLEIK yielded 倍数 (fold against HLPV-P00) of 8.95

HLPV-P14 (antibody, IgG1, V domains shown, Full IgG1/kappa antibody; not shown: human IgG1 heavy chain constant region, UniProtKB P01857.1; human Kappa light chain constant region, UniProtKB P01834.2) VH: QVQLVQSGAEVKKPGASVKVSCKASGYTFTNYYMYWVRQAPGQGLEWIGEINPTSGDVNFNEMFKSRVTMTVDTSTSTAYMELSSLRSEDTAVYYCTSIFYWGQGTLVTVSS VL: DIVMTQSPSSLSASVGDRVTITCKASQDIKYQLSWYQQKPGKAPKTLIYYAGDLADGVPSRFSGSGSGQEFTLTISSLQPEDFATYYCVQHDDRPFTFGQGTKLEIK yielded 倍数 (fold against HLPV-P00) of 8.58

HLPV-P02 (antibody, IgG1, V domains shown, Full IgG1/kappa antibody; not shown: human IgG1 heavy chain constant region, UniProtKB P01857.1; human Kappa light chain constant region, UniProtKB P01834.2) VH: QVQLVQSGAEVKKPGASVKVSCKASGYVFTDYYMYWVRQAPGQGLEWIGEINPTTGDVNFNEMFKSRVTMTVDTSTSTAYMELSSLRSEDTAVYYCTSIFYWGQGTLVTVSS VL: DIVMTQSPSSLSASVGDRVTITCKASQDIKYQLSWYQQKPGKAPKTLIYYSTDLADGVPSRFSGSGSGQEFTLTISSLQPEDFATYYCVQHDDRPFTFGQGTKLEIK yielded 倍数 (fold against HLPV-P00) of 6.29
